molecular target: MidT-pY324; test: fluorescence polarization
endpoint: Kd
Please answer in the form of a number followed by its unit of measurement.

In the examples that follow, each entry is paired with its recorded Kd.
Qu. GET /values?readout=Kd&item= S10A (designed binder) MKIEEHHHHHHSSGRENLYFQGGAAQPAAPVDSIQAEEWYFGKLGRKDAERQLLSFGNPRGTFLIRESETTKGAYALSIRDWDDMKGDHVKHYKIRKLDNGGYYITTRAQFETLQQLVQHYSERAAGLSSRLVVPSHKGAAA
Ans. 120 nM

Qu. Proceed to T8V S10A K15I (designed binder) MKIEEHHHHHHSSGRENLYFQGGAAQPAAPVDSIQAEEWYFGKLGRKDAERQLLSFGNPRGTFLIRESETVKGAYALSIRDWDDMKGDHVKHYIIRKLDNGGYYITTRAQFETLQQLVQHYSERAAGLSSRLVVPSHKGAAA
Ans. 98 nM

Qu. Proceed to K2E T8V S10A K15I (designed binder) MKIEEHHHHHHSSGRENLYFQGGAAQPAAPVDSIQAEEWYFGKLGREDAERQLLSFGNPRGTFLIRESETVKGAYALSIRDWDDMKGDHVKHYIIRKLDNGGYYITTRAQFETLQQLVQHYSERAAGLSSRLVVPSHKGAAA
Ans. 280 nM

Now for another entry.
Qu. GET /values?readout=Kd&item= T7S S10A K15L (designed binder) MKIEEHHHHHHSSGRENLYFQGGAAQPAAPVDSIQAEEWYFGKLGRKDAERQLLSFGNPRGTFLIRESESTKGAYALSIRDWDDMKGDHVKHYLIRKLDNGGYYITTRAQFETLQQLVQHYSERAAGLSSRLVVPSHKGAAA
Ans. 49 nM
